# Tested on: MRP1 cells, doxorubicin viability shift, 10 uM compound
# ASSAY_METHOD_TEXT: viability protection against doxorubicin, MRP-1 line – cell-based, doxorubicin EC50 shift, dose response (AID 844)
Activity calls are given as the source filed them. No rule for the calls is given here.
Outcomes: YES (active), NO (inactive)

compound=Cc1ccc(C)c2sc(NC(=O)c3ccc(N4CCCCC4)c([N+](=O)[O-])c3)nc12 target_of_assay="MRP1 cells, doxorubicin viability shift, 10 uM compound" qualitative_label=NO
compound=O=C1c2ccccc2-c2nc3ccccc3n21 target_of_assay="MRP1 cells, doxorubicin viability shift, 10 uM compound" qualitative_label=NO
compound=C=CCOc1c(CNc2ccc(C(=O)O)cc2)cccc1OCC target_of_assay="MRP1 cells, doxorubicin viability shift, 10 uM compound" qualitative_label=NO
compound=COC(=O)N/N=C/c1ccc(-c2cc(Cl)cc(Cl)c2)o1 target_of_assay="MRP1 cells, doxorubicin viability shift, 10 uM compound" qualitative_label=NO
compound="CCC(Sc1nc(-c2ccccc2)c(C#N)c(=O)[nH]1)C(=O)Nc1nnc(C)s1 (stereo not given)" target_of_assay="MRP1 cells, doxorubicin viability shift, 10 uM compound" qualitative_label=YES
